Reference source for all entries: ChEMBL document CHEMBL1955737

tested on: Human immunodeficiency virus type 1 reverse transcriptase (Human immunodeficiency virus 1), Q72547 [K103N]
The entries below come with measured log10 of ID50 values attached.
Heads up, the numbers here are log10 of ID50 in µM units.

The following compounds have reported results that may help.
Record summary for Cc1c(Cl)nc(Nc2ccc(C#N)cc2)nc1C(C)c1c(F)cccc1F (stereo not drawn) : reported log10 of ID50 = -1.15

Record summary for `N#Cc1ccc(Nc2nc(Cc3c(F)cccc3F)cc(=O)[nH]2)cc1` : reported log10 of ID50 = 0.41

Record summary for `N#Cc1ccc(Nc2nccc(Cc3c(F)cccc3F)n2)cc1` : reported log10 of ID50 = -0.30

Record summary for `N#Cc1ccc(Nc2nc(Cl)cc(Cc3c(F)cccc3F)n2)cc1` : reported log10 of ID50 = 0.64

Record summary for CC(c1cc(=O)[nH]c(Nc2ccc(C#N)cc2)n1)c1c(F)cccc1F (stereo not drawn) : reported log10 of ID50 = -0.46

Here's the next entry for you.
Record summary for CC(c1cc(Cl)nc(Nc2ccc(C#N)cc2)n1)c1c(F)cccc1F (stereo not drawn) : reported log10 of ID50 = -0.54

---

biological target: Human immunodeficiency virus type 1 reverse transcriptase (Human immunodeficiency virus 1)
Label y when ID50 is strictly below 10 nM; otherwise label n.

Would you please look over these solved cases?
input: Determine whether this compound shows ID50 lower than 10 nM (ties excluded): CC(c1cc(=O)[nH]c(Nc2ccc(C#N)cc2)n1)c1c(F)cccc1F (stereo unspecified)
output: n

input: Determine whether this compound shows ID50 lower than 10 nM (ties excluded): CC(c1ccnc(Nc2ccc(C#N)cc2)n1)c1c(F)cccc1F (stereo unspecified)
output: y

input: Determine whether this compound shows ID50 lower than 10 nM (ties excluded): `Cc1c(N)nc(Nc2ccc(C#N)cc2)nc1Cc1c(F)cccc1F`
output: n

***
input: Determine whether this compound shows ID50 lower than 10 nM (ties excluded): `Cc1cc(C)c(Nc2ccnc(Nc3ccc(C#N)cc3)n2)c(C)c1`
output: y

input: Determine whether this compound shows ID50 lower than 10 nM (ties excluded): `N#Cc1ccc(Nc2nc(Cl)cc(Cc3c(F)cccc3F)n2)cc1`
output: n

input: Determine whether this compound shows ID50 lower than 10 nM (ties excluded): Cc1c(C(C)c2c(F)cccc2F)nc(N(C)C)[nH]c1=O (stereo unspecified)
output: n

input: Determine whether this compound shows ID50 lower than 10 nM (ties excluded): `Cc1c(Cl)nc(Nc2ccc(C#N)cc2)nc1Cc1c(F)cccc1F`
output: n

input: Determine whether this compound shows ID50 lower than 10 nM (ties excluded): Cc1cnc(Nc2ccc(C#N)cc2)nc1C(C)c1c(F)cccc1F (stereo unspecified)
output: y

input: Determine whether this compound shows ID50 lower than 10 nM (ties excluded): `N#Cc1ccc(Nc2nccc(Cc3c(F)cccc3F)n2)cc1`
output: y

input: Determine whether this compound shows ID50 lower than 10 nM (ties excluded): `N#Cc1ccc(Nc2nc(Cc3c(F)cccc3F)cc(=O)[nH]2)cc1`
output: y

input: Determine whether this compound shows ID50 lower than 10 nM (ties excluded): Cc1c(N)nc(Nc2ccc(C#N)cc2)nc1C(C)c1c(F)cccc1F (stereo unspecified)
output: n

---

test system: Human immunodeficiency virus 1; test: Ratio of ID50 for HIV 1 reverse transcriptase K103N mutant to ID50 for wild type HIV 1 NL4-3 reverse transcriptase
Binned Ratio; ranges: bin A = under 10, bin B = from 10 up to 30, bin C = 30 and over

Would you please look over these solved cases?
input: Category lookup for the compound Cc1c(Cl)nc(Nc2ccc(C#N)cc2)nc1C(C)c1c(F)cccc1F (configuration not stated)
output: bin A

input: Category lookup for the compound `Cc1c(N)nc(Nc2ccc(C#N)cc2)nc1Cc1c(F)cccc1F`
output: bin A

input: Category lookup for the compound `N#Cc1ccc(Nc2nccc(Cc3c(F)cccc3F)n2)cc1`
output: bin C

input: Category lookup for the compound `Cc1c(Cl)nc(Nc2ccc(C#N)cc2)nc1Cc1c(F)cccc1F`
output: bin B

input: Category lookup for the compound CC(c1cc(=O)[nH]c(Nc2ccc(C#N)cc2)n1)c1c(F)cccc1F (configuration not stated)
output: bin B

input: Category lookup for the compound CC(c1ccnc(Nc2ccc(C#N)cc2)n1)c1c(F)cccc1F (configuration not stated)
output: bin B

input: Category lookup for the compound Cc1cnc(Nc2ccc(C#N)cc2)nc1C(C)c1c(F)cccc1F (configuration not stated)
output: bin B

input: Category lookup for the compound Cc1c(C(C)c2c(F)cccc2F)nc(N(C)C)[nH]c1=O (configuration not stated)
output: bin A

***
input: Category lookup for the compound `N#Cc1ccc(Nc2nc(N)cc(Cc3c(F)cccc3F)n2)cc1`
output: bin B

input: Category lookup for the compound Cc1c(N)nc(Nc2ccc(C#N)cc2)nc1C(C)c1c(F)cccc1F (configuration not stated)
output: bin A

input: Category lookup for the compound Cc1c(C(C)c2c(F)cccc2F)nc(Nc2ccc(C#N)cc2)[nH]c1=O (configuration not stated)
output: bin C

input: Category lookup for the compound `Cc1c(Cc2c(F)cccc2F)nc(Nc2ccc(C#N)cc2)[nH]c1=O`
output: bin C

input: Category lookup for the compound `N#Cc1ccc(Nc2nc(Cc3c(F)cccc3F)cc(=O)[nH]2)cc1`
output: bin C

input: Category lookup for the compound CC(c1cc(Cl)nc(Nc2ccc(C#N)cc2)n1)c1c(F)cccc1F (configuration not stated)
output: bin B

input: Category lookup for the compound `N#Cc1ccc(Nc2nc(Cl)cc(Cc3c(F)cccc3F)n2)cc1`
output: bin C

input: Category lookup for the compound `Cc1cnc(Nc2ccc(C#N)cc2)nc1Cc1c(F)cccc1F`
output: bin B

---

tested on: Human immunodeficiency virus type 1 reverse transcriptase (Human immunodeficiency virus 1), Q72547 [L100I]
Label Criterion met when ID50 is strictly below 700 nM; otherwise label Criterion not met.

Would you please look over these solved cases?
input: Determine whether this compound shows ID50 lower than 700 nM (ties excluded): `N#Cc1ccc(Nc2nc(Cc3c(F)cccc3F)cc(=O)[nH]2)cc1`
output: Criterion not met

input: Determine whether this compound shows ID50 lower than 700 nM (ties excluded): Cc1c(Cl)nc(Nc2ccc(C#N)cc2)nc1C(C)c1c(F)cccc1F (configuration not stated)
output: Criterion met

input: Determine whether this compound shows ID50 lower than 700 nM (ties excluded): Cc1cnc(Nc2ccc(C#N)cc2)nc1C(C)c1c(F)cccc1F (configuration not stated)
output: Criterion met

input: Determine whether this compound shows ID50 lower than 700 nM (ties excluded): CC(c1ccnc(Nc2ccc(C#N)cc2)n1)c1c(F)cccc1F (configuration not stated)
output: Criterion met

input: Determine whether this compound shows ID50 lower than 700 nM (ties excluded): Cc1c(C(C)c2c(F)cccc2F)nc(Nc2ccc(C#N)cc2)[nH]c1=O (configuration not stated)
output: Criterion not met

input: Determine whether this compound shows ID50 lower than 700 nM (ties excluded): Cc1c(C(C)c2c(F)cccc2F)nc(N(C)C)[nH]c1=O (configuration not stated)
output: Criterion not met

input: Determine whether this compound shows ID50 lower than 700 nM (ties excluded): Cc1c(N)nc(Nc2ccc(C#N)cc2)nc1C(C)c1c(F)cccc1F (configuration not stated)
output: Criterion met

input: Determine whether this compound shows ID50 lower than 700 nM (ties excluded): CC(c1cc(N)nc(Nc2ccc(C#N)cc2)n1)c1c(F)cccc1F (configuration not stated)
output: Criterion not met

input: Determine whether this compound shows ID50 lower than 700 nM (ties excluded): `N#Cc1ccc(Nc2nc(N)cc(Cc3c(F)cccc3F)n2)cc1`
output: Criterion not met

input: Determine whether this compound shows ID50 lower than 700 nM (ties excluded): `N#Cc1ccc(Nc2nccc(Cc3c(F)cccc3F)n2)cc1`
output: Criterion met

***
input: Determine whether this compound shows ID50 lower than 700 nM (ties excluded): `Cc1cnc(Nc2ccc(C#N)cc2)nc1Cc1c(F)cccc1F`
output: Criterion not met

input: Determine whether this compound shows ID50 lower than 700 nM (ties excluded): `Cc1c(N)nc(Nc2ccc(C#N)cc2)nc1Cc1c(F)cccc1F`
output: Criterion met

---

The entries below come with measured selectivity ratio values attached.
test: Selectivity index, ratio of CC50 for human MT4 cells to EC50 for HIV 1 NL4-3; format: toxicity, cell-based; details: read-out: Ratio CC50/EC50

Record summary for `Cc1cnc(Nc2ccc(C#N)cc2)nc1Cc1c(F)cccc1F` : reported selectivity ratio = > 22500

Record summary for CC(c1cc(Cl)nc(Nc2ccc(C#N)cc2)n1)c1c(F)cccc1F (stereo unspecified) : reported selectivity ratio = > 1800

Record summary for CC(c1cc(=O)[nH]c(Nc2ccc(C#N)cc2)n1)c1c(F)cccc1F (stereo unspecified) : reported selectivity ratio = > 312

Record summary for `Cc1c(N)nc(Nc2ccc(C#N)cc2)nc1Cc1c(F)cccc1F` : reported selectivity ratio = 230000

Record summary for `N#Cc1ccc(Nc2nc(N)cc(Cc3c(F)cccc3F)n2)cc1` : reported selectivity ratio = 149000

Record summary for `N#Cc1ccc(Nc2nccc(Cc3c(F)cccc3F)n2)cc1` : reported selectivity ratio = > 155000

Record summary for Cc1c(Cl)nc(Nc2ccc(C#N)cc2)nc1C(C)c1c(F)cccc1F (stereo unspecified) : reported selectivity ratio = > 5650
